TEST_SYSTEM: A13DBD V373G (mouse (murine), UniProt Q62424 320-386, V373G)
Sequence (Q62424 320-386 V373G): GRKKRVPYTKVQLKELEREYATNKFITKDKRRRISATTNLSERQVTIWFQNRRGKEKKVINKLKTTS
TEST_METHOD_NOTES: fluorescence anisotropy; 10 mM MgCl2; FA: 20 mM Tris pH 7.5, 80 mM KCl, 10 mM MgCl2, 0.2 mM EDTA, 1 mM DTT, 15 C, 1 nM DNA; NMR complex: 20 mM NaPO4 pH 6.0, 5 mM MgCl2, 10% D2O, 310 K; ITC buffer not given in the material
ASSAY_CONTEXT: protein: recombinant; tags: His-tag removed by thrombin; label: 5' 6-FAM via hexyl linker; hairpin (self-annealing)
Quick list: Kd per entry.
Please give a number only; it is taken to be in nM.

As a guide, the following entries are already answered.
- BINDER: "CAAACAAAATCCCCCATTTTGTTTG (structured_DNA) [FA T5C]"
  RESULT_UNIT: "nM"
  Kd: 616
- BINDER: "CAAATGAAATCCCCCATTTCATTG (structured_DNA) [FA T6*C]"
  RESULT_UNIT: "nM"
  Kd: 79.3

# context switch: different binder, same Kd
Given item CAAATAAAATCCCCCATTTTATTTG (structured_DNA) [FA consensus (wt)] , the value recorded as its Kd is 56.6
